As shown below, each of these compounds has a reported inhibition at 10 µM value.
Biological target: GST-tagged ROR gamma ligand binding domain (LBD) (Homo sapiens, UniProt P51449)
Construct: purchased Invitrogen
Sequence (P51449 269-508 limits assumed): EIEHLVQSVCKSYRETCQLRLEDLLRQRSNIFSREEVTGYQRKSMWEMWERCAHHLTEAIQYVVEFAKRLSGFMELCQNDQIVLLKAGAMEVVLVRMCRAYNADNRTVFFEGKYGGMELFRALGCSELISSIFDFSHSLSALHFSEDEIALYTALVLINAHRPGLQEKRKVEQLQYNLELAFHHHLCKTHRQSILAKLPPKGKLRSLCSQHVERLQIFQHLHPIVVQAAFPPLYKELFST
Assay: TR-FRET assay for ROR gamma (LanthaScreen co-activator peptide recruitment)
Assay type: biochemical
Conditions: compound 10 μM; TR-FRET ratio 520/495, percent of control
Numeric answer only, unit % assumed.

1. CCCn1c(C(C)(C)Oc2ccc(F)cc2F)nc2cc(NC(=O)Cc3ccc(S(=O)(=O)CC)cc3)ccc21 [Example 115] | 88.3
2. CCS(=O)(=O)c1ccc(CC(=O)Nc2ccc(OC3(c4ccc(F)c(F)c4)CCC3)cc2)cc1 [Example 34] | 89.7
3. CCS(=O)(=O)c1ccc(CC(=O)Nc2ccc(C#CC(C)(C)Oc3c(F)cc(F)cc3F)cc2)cc1 [Example 73] | 78.6
4. CCS(=O)(=O)c1ccc(CC(=O)Nc2ccc(C#CC(C)(C)Oc3ccc(OC(F)(F)F)cc3)cc2)cc1 [Example 77] | 87.1
5. CCS(=O)(=O)c1ccc(CC(=O)Nc2ccc(OC(C)(C)Cn3c(C)cc4cc(F)ccc43)cc2)cc1 [Example 30] | 70.7
6. CCC(CC)(Oc1ccc(NC(=O)Cc2ccc(S(=O)(=O)CC)cc2)cc1)c1ccc(F)cc1F [Example 13] | 68.8

Tell me the measured inhibition at 10 µM of CCS(=O)(=O)c1ccc(CC(=O)Nc2ccc(OC(C)(C)c3ccc(Cl)cc3Cl)c(F)c2)cc1 [Example 96] , please.
79.8

Tell me the measured inhibition at 10 µM of CCS(=O)(=O)c1ccc(CC(=O)Nc2ccc(C#CCOc3ccc(Cl)cc3Cl)cc2)cc1 [Example 60] , please.
90.4

Tell me the measured inhibition at 10 µM of CCS(=O)(=O)c1ccc(CC(=O)Nc2ccc(OC(C)(C)c3ccc(Cl)c(Cl)c3)nc2)cc1 [Example 59] , please.
86.7

Tell me the measured inhibition at 10 µM of CCS(=O)(=O)c1ccc(CC(=O)Nc2ccc(OC3(c4ccc(F)cc4F)CCCCC3)c(F)c2)cc1 [Example 140] , please.
72.8

Tell me the measured inhibition at 10 µM of CCn1c(C2(Oc3ccc(NC(=O)Cc4ccc(S(=O)(=O)CC)cc4)cc3)CC2)nc2cc(Cl)ccc21 [Example 24] , please.
85.6

Tell me the measured inhibition at 10 µM of CCS(=O)(=O)c1ccc(CC(=O)Nc2ccc(OC(C)(C)c3ccc(C(F)(F)F)cc3)cc2)cc1 [Example 9] , please.
89
